molecular target: FABP5 (Homo sapiens, UniProt Q01469); assay: Fluorescence-based binding assay (ANS titration and competition); design: GST; made in house; host or cells: E. coli BL21; details: mean±SD, n=3; extracted from EC50 of competition curve and Kd of probe; read-out: Kd for FABP5, fluorescence competition titration against ANS
Sequence (Q01469 whole entry, species assumed): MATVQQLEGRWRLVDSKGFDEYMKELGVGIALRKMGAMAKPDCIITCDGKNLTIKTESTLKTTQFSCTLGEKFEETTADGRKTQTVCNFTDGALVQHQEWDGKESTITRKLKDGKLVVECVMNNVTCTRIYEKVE
metric: pKd
Recall that pKd is obtained by taking minus log10 of the concentration measured in molar.

Exercise: Give the value of pKd reported for the following: CC1=C(/C=C/C(C)=C/C=C/C(C)=C/C(=O)O)C(C)(C)CCC1 [RA, all-trans-retinoic acid]
Solution: 7.46

* * *

target: FABP5 (Homo sapiens, UniProt Q01469); experiment: Fluorescence-based binding assay (ANS titration and competition); design: GST; made in house; host or cells: E. coli BL21; conditions: mean±SD, n=3; protein 1 μM titrated with probe; read-out: Kd for FABP5, direct fluorescence titration
metric: pKd
Recall that pKd is obtained by taking minus log10 of the concentration measured in molar.

Exercise: Please indicate recorded pKd of "O=S(=O)(O)c1cccc2cccc(Nc3ccccc3)c12" measured with FABP5 (Homo sapiens, UniProt Q01469).
Solution: 7.24
